- Tgt: BChE from equine serum (Equus caballus)
- Construct: BChE (from equine serum)
- Test summary: In vitro BChE inhibition, modified Ellman's method
Reported metric: IC50

molecule_smiles=O=C(Nc1ccc(O)cc1)[C@@H]1CCCN1C(=O)OCc1ccccc1 reading="133 µM"
molecule_smiles=Cc1ccccc1NC(=O)[C@@H]1CCCN1C(=O)OCc1ccccc1 reading="98.3 µM"
molecule_smiles=Cc1ccc(NC(=O)[C@@H]2CCCN2C(=O)OCc2ccccc2)cc1 reading="153 µM"
molecule_smiles=O=C(Nc1ccc([N+](=O)[O-])cc1)[C@@H]1CCCN1C(=O)OCc1ccccc1 reading="58.8 µM"
molecule_smiles=O=C(Nc1cccc(Cl)c1)[C@@H]1CCCN1C(=O)OCc1ccccc1 reading="64.2 µM"
molecule_smiles=O=C(Nc1ccccc1C(F)(F)F)[C@@H]1CCCN1C(=O)OCc1ccccc1 reading="44.9 µM"
molecule_smiles=O=C(Nc1ccc(Cl)cc1)[C@@H]1CCCN1C(=O)OCc1ccccc1 reading="147 µM"
molecule_smiles=COc1cccc(NC(=O)[C@@H]2CCCN2C(=O)OCc2ccccc2)c1 reading="58.5 µM"
molecule_smiles=O=C(Nc1cccc(F)c1)[C@@H]1CCCN1C(=O)OCc1ccccc1 reading="34.6 µM"
molecule_smiles=COc1ccc(NC(=O)[C@@H]2CCCN2C(=O)OCc2ccccc2)cc1 reading="117 µM"
molecule_smiles=COc1ccccc1NC(=O)[C@@H]1CCCN1C(=O)OCc1ccccc1 reading="51.5 µM"

###

Let's look at some compounds and their measured IC50.
- Tgt: AChE from electric eel (Electrophorus electricus) (Electrophorus electricus, UniProt O42275)
- Construct: AChE (from electric eel) and BChE (from equine serum)
- Sequence (O42275 24-633): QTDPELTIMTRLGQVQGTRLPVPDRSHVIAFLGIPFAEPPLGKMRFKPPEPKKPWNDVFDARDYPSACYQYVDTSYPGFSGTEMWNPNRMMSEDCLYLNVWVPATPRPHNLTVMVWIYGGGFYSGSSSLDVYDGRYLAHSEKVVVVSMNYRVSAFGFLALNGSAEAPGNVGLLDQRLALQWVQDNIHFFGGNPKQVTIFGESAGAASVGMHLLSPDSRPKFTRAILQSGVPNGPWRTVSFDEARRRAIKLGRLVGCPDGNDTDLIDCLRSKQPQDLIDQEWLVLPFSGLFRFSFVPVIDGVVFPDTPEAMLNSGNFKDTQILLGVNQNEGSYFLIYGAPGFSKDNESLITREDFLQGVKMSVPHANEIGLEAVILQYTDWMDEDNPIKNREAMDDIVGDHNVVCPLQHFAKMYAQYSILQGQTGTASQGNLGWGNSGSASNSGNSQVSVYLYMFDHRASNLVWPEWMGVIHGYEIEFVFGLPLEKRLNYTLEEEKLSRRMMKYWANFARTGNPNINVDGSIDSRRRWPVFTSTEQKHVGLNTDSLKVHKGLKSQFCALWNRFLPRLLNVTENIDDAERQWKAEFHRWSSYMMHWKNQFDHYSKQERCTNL
- Test summary: In vitro AChE inhibition, modified Ellman's method
Reported metric: IC50 (µM)

molecule_smiles=Cc1cccc(NC(=O)[C@@H]2CCCN2C(=O)OCc2ccccc2)c1 reading=81.1
molecule_smiles=O=C(Nc1ccccc1O)[C@@H]1CCCN1C(=O)OCc1ccccc1 reading=153
molecule_smiles=O=C(Nc1ccc(O)cc1)[C@@H]1CCCN1C(=O)OCc1ccccc1 reading=91.1
molecule_smiles=O=C(Nc1cccc(C(F)(F)F)c1)[C@@H]1CCCN1C(=O)OCc1ccccc1 reading=68.9
molecule_smiles=O=C(Nc1ccccc1)[C@@H]1CCCN1C(=O)OCc1ccccc1 reading=106

###

Let's look at some compounds and their measured SI (index selectivity) = IC50 (AChE)/IC50 (BChE).
- Tgt: BChE from equine serum (Equus caballus, UniProt P81908)
- Construct: BChE (from equine serum); purchased Sigma, St. Louis, MO, USA; host or cells: equine serum
- Sequence (P81908 whole entry): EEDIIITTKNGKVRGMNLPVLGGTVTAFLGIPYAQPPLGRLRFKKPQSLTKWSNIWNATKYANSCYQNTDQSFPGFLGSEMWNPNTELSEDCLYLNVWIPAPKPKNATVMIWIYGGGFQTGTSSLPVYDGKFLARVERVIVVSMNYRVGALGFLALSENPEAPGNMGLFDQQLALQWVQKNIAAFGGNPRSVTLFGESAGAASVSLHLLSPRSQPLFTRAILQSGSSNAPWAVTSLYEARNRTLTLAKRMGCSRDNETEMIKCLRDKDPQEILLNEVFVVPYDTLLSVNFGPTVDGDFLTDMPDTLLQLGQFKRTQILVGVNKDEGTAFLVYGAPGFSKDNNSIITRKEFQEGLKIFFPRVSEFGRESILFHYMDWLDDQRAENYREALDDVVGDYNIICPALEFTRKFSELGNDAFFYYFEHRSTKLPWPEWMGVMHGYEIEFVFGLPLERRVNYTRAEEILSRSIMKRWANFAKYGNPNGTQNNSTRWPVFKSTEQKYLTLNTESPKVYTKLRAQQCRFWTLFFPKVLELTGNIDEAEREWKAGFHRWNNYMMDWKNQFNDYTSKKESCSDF
- Test summary: In vitro BChE inhibition, modified Ellman's method
- Type: biochemical
- Measurement setup: ratio AChE/BChE; higher = more selective to BChE
Reported metric: SI (index selectivity) = IC50 (AChE)/IC50 (BChE)

molecule_smiles=O=C(Nc1ccccc1F)[C@@H]1CCCN1C(=O)OCc1ccccc1 reading=0.86
molecule_smiles=O=C(Nc1cccc(Br)c1)[C@@H]1CCCN1C(=O)OCc1ccccc1 reading=1.56
molecule_smiles=O=C(Nc1ccccc1O)[C@@H]1CCCN1C(=O)OCc1ccccc1 reading=3.65
